Could you please report measured CC50 for the items listed next?
Assay: Cytotoxicity in MRC-5
Format: cell-based
Conditions: human, MRC-5 cells
Method: Compound cytotoxicity assessment in MT-4 cells, primary CD4+ T lymphocytes, and MDMs was carried out using a protocol identical to the antiviral assay except uninfected cells were used and tested with higher concentration ranges of test compounds. […] For all cytotoxicity assays, the CC50 value for puromycin was determined as a positive internal control and to assess assay sensitivity in each cell type. […]
Answers are plain numbers, in µM.

Fill in CC50 for each of the 2 compounds listed.
1. COc1ccc(C[C@H](N)C(=O)N[C@H]2[C@@H](O)[C@H](n3cnc4c(N(C)C)ncnc43)O[C@@H]2CO)cc1
2. CC(C)(CC1(c2ccc(-c3cnn(C4CC4)n3)cc2)NC(=N)N(C(COC(=O)NC2(C(F)F)CC2)c2ccc(Cl)c(-c3ncnn3C(F)F)c2)C1=O)C(F)(F)F (centres unmarked)

1. 0.31
2. 20
